System: Botrytis cinerea
Assay: Test E: tomato botrytis, preventive spray on tomato seedlings
Conditions: 40 ppm (marked *); 100 = 100% disease control, 0 = no control
Marks after values point to notes of the source that are not given here.
VALUE_TYPE: Test E disease control rating

Reading of Test E disease control rating for O=c1c(-n2cccn2)nc(Cl)c(-c2c(F)cccc2F)n1-c1ccc(F)c(F)c1 with Botrytis cinerea: 99* %

I looked up O=c1c(-n2cccn2)nc(Cl)c(-c2c(F)cccc2F)n1-c1cc(F)cc(F)c1 and its Test E disease control rating for Botrytis cinerea was 99* %

Assay Botrytis cinerea, sample Cc1ccn(-c2nc(Cl)c(-c3c(F)cccc3F)n(-c3cccc(F)c3F)c2=O)n1 , Test E disease control rating read: 100* %

Known value: Botrytis cinerea Test E disease control rating of the molecule O=c1c(-n2cccn2)nc(Cl)c(-c2c(F)cc(F)cc2F)n1-c1ccc(F)cc1 equals 99* %

###

Tested on: Septoria tritici
Assay: Test J: wheat leaf blotch, preventive spray on wheat seedlings
Type: in vivo
Details: 200 ppm
Record form. Attribute: Test J disease control rating. Fill in for each entry.
Number first, unit second.

Value of Test J disease control rating reported for the molecule CC(C)Cn1c(-c2c(F)cccc2F)c(Cl)nc(-c2nccn2C)c1=O [compound 102] is 0%

Recorded result, CC(C)Cn1c(-c2ccc(Cl)cc2Cl)c(Cl)nc(-n2cncn2)c1=O [compound 118] , Test J disease control rating: 100%

Test J disease control rating reading for Cc1ccnc(-c2nc(Cl)c(-c3c(F)cccc3F)n(CC(C)C)c2=O)c1 [compound 208] : 100%

Sample O=c1c(-n2cccn2)nc(Cl)c(-c2c(F)cccc2F)n1C1CCCCC1 [compound 47] ; Test J disease control rating observed: 100%

For reference, reported Test J disease control rating for CC(C)Cn1c(-c2ccc(Cl)cc2)c(Cl)nc(-n2cccn2)c1=O [compound 22] stands at 98%

Documented Test J disease control rating of CC(C)Cn1c(-c2c(F)cccc2F)c(Cl)nc(NN=C2CCCC2)c1=O [compound 73] : 59%

Measured Test J disease control rating, CC(c1ccccc1)n1c(-c2c(F)cccc2F)c(Cl)nc(-n2cccn2)c1=O (stereo not drawn) [compound 107] : 93%

What the record says about CC(C)Cn1c(-c2ccc(Cl)cc2)c(Cl)nc(-n2cncn2)c1=O [compound 23] : Test J disease control rating is 98%

The reported value for Cc1nc(C)n(-c2nc(Cl)c(-c3ccc(Cl)cc3)n(CC(C)C)c2=O)n1 [compound 24] in terms of Test J disease control rating is 80%

The recorded Test J disease control rating for O=c1c(-n2cccn2)nc(Cl)c(-c2c(F)cccc2F)n1Cc1ccccc1 [compound 104] is 100%

Lookup result for CC(C)Cn1c(-c2cc(Br)c3c(c2)OCO3)c(Cl)nc(-n2cccn2)c1=O [compound 89] ; measured Test J disease control rating: 0%

The molecule CCCn1c(-c2c(F)cccc2F)c(Cl)nc(-n2cccn2)c1=O [compound 27] showed Test J disease control rating equal to 100%

// sample Cc1cc(C)cc(-c2c(Cl)nc(-n3cccn3)c(=O)n2CC(C)C)c1 [compound 137] , its Test J disease control rating was 30%

The recorded Test J disease control rating for entry CC(C)Cn1c(-c2ccccc2F)c(Cl)nc(-n2cncn2)c1=O [compound 175] equals 98%

Please fill in: Test J disease control rating reported for O=c1c(-n2cncn2)nc(Cl)c(-c2c(F)cccc2F)n1Cc1ccccc1 [compound 105] = 98%

// Test J disease control rating lookup, molecule = CC(C)Cn1c(-c2c(F)cccc2F)c(Cl)nc(-c2cnc3ccccn23)c1=O [compound 190] , result: 0%

For COc1ccccc1-c1c(Cl)nc(-n2cccn2)c(=O)n1CC(C)C [compound 176] the molecule record lists Test J disease control rating as 94%

For reference, reported Test J disease control rating for CCCn1c(-c2c(F)cccc2F)c(Cl)nc(-n2cncn2)c1=O [compound 34] stands at 97%

Lab note: CC(C)Cn1c(-c2c(F)cccc2F)c(Cl)nc(-c2ccnn2C)c1=O [compound 103] gave Test J disease control rating of 3%

For Cc1cccc(C)c1-c1c(Cl)nc(-n2cccn2)c(=O)n1CC(C)C [compound 202] the molecule record lists Test J disease control rating as 100%

Query CCCCCn1c(-c2c(F)cccc2F)c(Cl)nc(-n2cccn2)c1=O [compound 28] yields Test J disease control rating of 100%

Per the records, this molecule ( O=c1c(-n2cncn2)nc(Cl)c(-c2c(F)cccc2F)n1-c1ccccc1 [compound 162] ) has Test J disease control rating equal to 100%

For this molecule ( CC(C)Cn1c(C(C)C)c(Cl)nc(-n2cccn2)c1=O [compound 204] ), measured Test J disease control rating is 90%

Noted for CC(C)CCn1c(-c2c(F)cccc2F)c(Cl)nc(-n2cccn2)c1=O [compound 35] : its Test J disease control rating reads 100%

Reported Test J disease control rating of CCCC(C)n1c(-c2c(F)cccc2F)c(Cl)nc(-n2cccn2)c1=O (stereo not drawn) [compound 25] : 100%

Entry under test: CC(C)Cn1c(-c2ccc3c(c2)OCO3)c(Cl)nc(-n2cccn2)c1=O [compound 88] . Its Test J disease control rating was 100%

The molecule CCC(C)Cn1c(-c2c(F)cccc2F)c(Cl)nc(-n2cnc(C#N)c2C#N)c1=O (stereo not drawn) [compound 67] showed Test J disease control rating equal to 24%

Kindly note the recorded Test J disease control rating for CCC(C)Cn1c(-c2c(F)cccc2F)c(Cl)nc(-n2ccc(Br)n2)c1=O (stereo not drawn) [compound 65] , which is 100%

For reference, reported Test J disease control rating for CC(C)Cn1c(-c2ccc(C#N)cc2)c(Cl)nc(-n2cncn2)c1=O [compound 144] stands at 89%

Test J disease control rating in this record for CS(=O)(=O)CCn1c(-c2c(F)cccc2F)c(Cl)nc(-n2cncn2)c1=O [compound 127] : 16%

Short answer for CC(C)Cn1c(-c2c(F)cccc2F)c(Cl)nc(-c2cncn2C)c1=O [compound 83] : Test J disease control rating was 18%

The reported value for CCC(C)Cn1c(-c2c(F)cccc2F)c(Cl)nc(-n2nccn2)c1=O (stereo not drawn) [compound 191] in terms of Test J disease control rating is 36%

For reference, reported Test J disease control rating for O=c1c(-n2cncn2)nc(Cl)c(-c2c(F)cccc2F)n1CC1CC1 [compound 17] stands at 87%

// sample COc1cc(OC)c(-c2c(Cl)nc(-n3cccn3)c(=O)n2CC(C)C)c(OC)c1 [compound 86] , its Test J disease control rating was 0%

Reported Test J disease control rating of CC(C)Cn1c(C(C)C)c(Cl)nc(-n2cncn2)c1=O [compound 207] : 70%

molecule CC(C)C(C)n1c(-c2c(F)cccc2F)c(Cl)nc(-n2cccn2)c1=O (stereo not drawn) [compound 29] , Test J disease control rating observed: 100%

###

Tested on: Septoria nodorum
Assay: Test H: wheat glum blotch, preventive spray on wheat seedlings
Details: 40 ppm (marked *); 100 = 100% disease control, 0 = no control
Marks after values point to notes of the source that are not given here.
VALUE_TYPE: Test H disease control rating

// CCCCn1c(-c2ccc(F)cc2Cl)c(Br)nc(-n2ccc(C)n2)c1=O : Test H disease control rating value = 85* %

Looking up Cc1ccn(-c2nc(Cl)c(-c3c(F)cc(F)cc3F)n(-c3cc(F)c(F)c(F)c3)c2=O)n1 , I found its Test H disease control rating recorded as 99* %

Test H disease control rating in this record for CC(C)Cn1c(-c2cccc(C#N)c2)c(Cl)nc(-n2cccn2)c1=O : 0* %

Data point: CC(C)Cn1c(-c2c(F)cccc2F)c(Cl)nc(-c2cnccn2)c1=O.Cl ; Test H disease control rating = 0* %

Measured Test H disease control rating, COc1cccc(-n2c(-c3c(F)cccc3F)c(Cl)nc(-n3cccn3)c2=O)c1 : 100* %

// CCCCn1c(-c2ccc(F)cc2Cl)c(Br)nc(N2CCC=N2)c1=O : Test H disease control rating value = 0* %

Measured Test H disease control rating, O=c1c(-n2cccn2)nc(Cl)c(-c2c(F)cc(F)cc2F)n1-c1ccccc1 : 99* %

Query CC[C@H](C)Cn1c(-c2ccc(F)cc2Cl)c(Br)nc(N2CCC=N2)c1=O yields Test H disease control rating of 0* %

Just so you know, measured Test H disease control rating for O=c1c(-n2cccn2)nc(Cl)c(-c2c(F)cc(F)cc2F)n1-c1ccc(F)c(Cl)c1 came out at 99* %

Memo: O=c1c(-n2cccn2)nc(Cl)c(-c2c(F)cc(F)cc2F)n1-c1cc(F)c(F)c(F)c1 , reported Test H disease control rating: 99* %

// Test H disease control rating lookup, compound = O=c1c(-n2cccn2)nc(Cl)c(-c2c(F)cc(F)cc2F)n1-c1cc(F)cc(F)c1 , result: 100* %

response.value for Cc1ccn(-c2nc(Cl)c(-c3c(F)cccc3F)n(-c3cccc(F)c3F)c2=O)n1 (field: Test H disease control rating) = 99* %

Form field Test H disease control rating, entry O=c1c(-n2cccn2)nc(Cl)c(-c2c(F)cccc2F)n1-c1ccccc1OC(F)(F)F [compound 397] : 94* %

The recorded Test H disease control rating for entry CCC(C)Cn1c(-c2c(F)cc(F)cc2F)c(Cl)nc(C(N)=O)c1=O (centres unmarked) equals 100* %

O=c1c(-n2cccn2)nc(Cl)c(-c2c(F)cccc2F)n1-c1cccc(F)c1 has a reported Test H disease control rating of 99* %

Given item COc1ccc(-n2c(-c3c(F)cccc3F)c(Cl)nc(-n3cccn3)c2=O)cc1 , the value recorded as its Test H disease control rating is 95* %

Query Cc1ccn(-c2nc(Cl)c(-c3c(F)cccc3F)n(Cc3ccc(F)cc3)c2=O)n1 [compound 341] yields Test H disease control rating of 99* %

# credit: patent US20080194585A1
